Values from the supplement of paper PMC12350171

The reader will find reported growth AUC normalised to DMSO control values listed item by item below.
# System: Yersinia pseudotuberculosis
# METHOD_DESCRIPTION: growth AUC normalised to DMSO control (fraction of control); higher = less growth inhibition, active = hit call of the paper
# CONDITION: 20 µM

{"COMPOUND": "Cc1cc(NS(=O)(=O)c2ccc(N)cc2)no1 [Sulfamethoxazole]", "ASSAYED_TARGET": "Yersinia pseudotuberculosis", "growth AUC normalised to DMSO control": 0.991}
{"COMPOUND": "CC(C)NCC(O)COc1ccc(COCCOC(C)C)cc1 (stereo not drawn) [Bisoprolol hemifumarate]", "ASSAYED_TARGET": "Yersinia pseudotuberculosis", "growth AUC normalised to DMSO control": 1.02}
{"COMPOUND": "C=C1C[C@H]2[C@@H]3C=C(C)C4=CC(=O)CC[C@]4(C)[C@H]3CC[C@]2(C)[C@@]1(OC(C)=O)C(C)=O [Melengestrol acetate]", "ASSAYED_TARGET": "Yersinia pseudotuberculosis", "growth AUC normalised to DMSO control": 1.03}

###

# growth AUC normalised to DMSO control per record follows
# Test system: P. vulgatus RND KO
# METHOD_DESCRIPTION: growth AUC normalised to DMSO control (median) (fraction of control); higher = less growth inhibition, active = hit call of the paper
# CONDITION: 20 µM
Structures can show the parent of a compound that is named as a salt.

{"COMPOUND": "Cc1ncc(C[n+]2csc(CCO)c2C)c(N)n1 [Thiamine hydrochloride]", "growth AUC normalised to DMSO control": 0.978}
{"COMPOUND": "O=C(N/N=C/c1ccc([N+](=O)[O-])o1)c1ccc(O)cc1 [Nifuroxazide]", "growth AUC normalised to DMSO control": 0.883}
{"COMPOUND": "CNC[C@H](O)[C@@H](O)[C@H](O)[C@H](O)CO", "growth AUC normalised to DMSO control": 1.01}
{"COMPOUND": "O=c1[nH]c(=O)n([C@H]2C[C@H](O)[C@@H](CO)O2)cc1I", "growth AUC normalised to DMSO control": 1.01}

###

# Tested on: S. enterica typhimurium WT
# METHOD_DESCRIPTION: growth AUC normalised to DMSO control (median) (fraction of control); higher = less growth inhibition, active = hit call of the paper
# CONDITION: 20 µM
Structures can show the parent of a compound that is named as a salt.
PROPERTY_LABEL: growth AUC normalised to DMSO control

{"COMPOUND": "Clc1ccc2c(c1)C(N1CCNCC1)=Nc1ccccc1O2", "ASSAY_VALUE": 1.01}
{"COMPOUND": "O=C(N/N=C/c1ccc([N+](=O)[O-])o1)c1ccc(O)cc1 [Nifuroxazide]", "ASSAY_VALUE": 0.924}
{"COMPOUND": "C[C@@H](c1ncncc1F)[C@](O)(Cn1cncn1)c1ccc(F)cc1F", "ASSAY_VALUE": 1}
{"COMPOUND": "CC(C)(O)c1ccccc1CC[C@@H](SCC1(CC(=O)O)CC1)c1cccc(/C=C/c2ccc3ccc(Cl)cc3n2)c1", "ASSAY_VALUE": 1}
{"COMPOUND": "C[C@@H](O)[C@H]1C(=O)N2C(C(=O)O)=C(S[C@@H]3CN[C@H](CNS(N)(=O)=O)C3)[C@H](C)[C@H]12 [Doripenem monohydrate]", "ASSAY_VALUE": 0.00575}
{"COMPOUND": "CC[N+](C)(CC)CCOC(=O)C1c2ccccc2Oc2ccccc21 [Methantheline bromide]", "ASSAY_VALUE": 1}
{"COMPOUND": "CN1CCC(OC(c2ccccc2)c2ccccc2)CC1 [Diphenylpyraline hydrochloride]", "ASSAY_VALUE": 0.987}
{"COMPOUND": "CN(C)CCOC(c1ccc(Cl)cc1)c1ccccn1 (stereo not drawn) [Carbinoxamine maleate salt]", "ASSAY_VALUE": 1}
{"COMPOUND": "C[C@H](Cc1cc2c(c(C(N)=O)c1)N(CCCO)CC2)NCCOc1ccccc1OCC(F)(F)F", "ASSAY_VALUE": 1.01}
{"COMPOUND": "Clc1ccc(C(c2ccccc2Cl)C(Cl)Cl)cc1 (stereo not drawn)", "ASSAY_VALUE": 1}
{"COMPOUND": "CC(=O)O[C@]1(C(C)=O)CC[C@H]2[C@@H]3C=C(Cl)C4=CC(=O)[C@@H]5C[C@@H]5[C@]4(C)[C@H]3CC[C@@]21C [Cyproterone acetate]", "ASSAY_VALUE": 1}
{"COMPOUND": "CCCCc1oc2ccc(NS(C)(=O)=O)cc2c1C(=O)c1ccc(OCCCN(CCCC)CCCC)cc1 [Dronedarone hydrochloride]", "ASSAY_VALUE": 1}
{"COMPOUND": "CNCCCC1c2ccccc2C=Cc2ccccc21 [Protriptyline hydrochloride]", "ASSAY_VALUE": 0.996}
{"COMPOUND": "COc1ccc2cc([C@H](C)C(=O)O)ccc2c1 [(S)-Naproxen]", "ASSAY_VALUE": 0.994}
{"COMPOUND": "CC(COc1ccccc1)NC(C)C(O)c1ccc(O)cc1 (stereo not drawn) [Isoxsuprine hydrochloride]", "ASSAY_VALUE": 0.998}
{"COMPOUND": "C[C@]12C[C@H](O)[C@H]3[C@@H](CCC4=CC(=O)CC[C@@]43C)[C@@H]1CC[C@@H]2C(=O)CO", "ASSAY_VALUE": 1.02}
{"COMPOUND": "N=C(N)NCC1COC2(CCCCC2)O1 (stereo not drawn) [Guanadrel sulfate]", "ASSAY_VALUE": 0.994}
{"COMPOUND": "CC(=C(CCO)SSCC1CCCO1)N(C=O)Cc1cnc(C)nc1N (stereo in doubt) [Fursultiamine hydrochloride]", "ASSAY_VALUE": 0.986}
{"COMPOUND": "CCCCCNC(=N)N/N=C/c1c[nH]c2ccc(OC)cc12 [Tegaserod maleate]", "ASSAY_VALUE": 0.994}
{"COMPOUND": "COc1cc(NS(=O)(=O)c2ccc(N)cc2)nc(OC)n1", "ASSAY_VALUE": 1}
{"COMPOUND": "COc1ccc(Cl)cc1C(=O)NCCc1ccc(S(=O)(=O)NC(=O)NC2CCCCC2)cc1 [Glibenclamide]", "ASSAY_VALUE": 1.01}
{"COMPOUND": "CC(C)C(=O)OCC(=O)[C@@]12O[C@H](C3CCCCC3)O[C@@H]1C[C@H]1[C@@H]3CCC4=CC(=O)C=C[C@]4(C)[C@H]3[C@@H](O)C[C@@]12C [Ciclesonide]", "ASSAY_VALUE": 1.01}
{"COMPOUND": "COc1ccc(C(=O)c2ccc(C)cc2)c(O)c1", "ASSAY_VALUE": 1}

###

# System: S. enterica typhimurium WT
# METHOD_DESCRIPTION: growth AUC normalised to DMSO control (median) (fraction of control); higher = less growth inhibition, active = hit call of the paper
# CONDITION: 20 µM
Where a name gives a salt, the structure may show the parent alone.
Entries and their growth AUC normalised to DMSO control

{"COMPOUND": "CC12CC3CC(C)(C1)CC(N)(C3)C2 [Memantine hydrochloride]", "ASSAYED_TARGET": "S. enterica typhimurium WT", "growth AUC normalised to DMSO control": 1.01}
{"COMPOUND": "COC1=CC(=O)C[C@@H](C)[C@]12Oc1c(Cl)c(OC)cc(OC)c1C2=O [Griseofulvin]", "ASSAYED_TARGET": "S. enterica typhimurium WT", "growth AUC normalised to DMSO control": 1}
{"COMPOUND": "N=c1ccn2c(n1)O[C@H]1[C@H](O)[C@@H](CO)O[C@H]12 [Ancitabine hydrochloride]", "ASSAYED_TARGET": "S. enterica typhimurium WT", "growth AUC normalised to DMSO control": 1.01}
{"COMPOUND": "Nc1nc(=O)n([C@@H]2CS[C@H](CO)O2)cc1F [(-) Emtricitabine]", "ASSAYED_TARGET": "S. enterica typhimurium WT", "growth AUC normalised to DMSO control": 0.998}
{"COMPOUND": "C[C@@H](O)[C@H]1C(=O)N2C(C(=O)O)=C(SCCNC=N)C[C@H]12 [Imipenem]", "ASSAYED_TARGET": "S. enterica typhimurium WT", "growth AUC normalised to DMSO control": 1}
{"COMPOUND": "COc1cc2nc(N3CCN(C(=O)C4CCCO4)CC3)nc(N)c2cc1OC (stereo not drawn) [Terazosin hydrochloride]", "ASSAYED_TARGET": "S. enterica typhimurium WT", "growth AUC normalised to DMSO control": 1}
{"COMPOUND": "CC(C)Oc1ccc2c(=O)c(-c3ccccc3)coc2c1 [Ipriflavone]", "ASSAYED_TARGET": "S. enterica typhimurium WT", "growth AUC normalised to DMSO control": 0.978}
{"COMPOUND": "COc1ccc2c3c1O[C@H]1C[C@@H](O)C=C[C@@]31CCN(C)C2 [Galanthamine hydrobromide]", "ASSAYED_TARGET": "S. enterica typhimurium WT", "growth AUC normalised to DMSO control": 1}
{"COMPOUND": "O=C(O)c1cc(/N=N/c2ccc(S(=O)(=O)Nc3ccccn3)cc2)ccc1O [Sulfasalazine]", "ASSAYED_TARGET": "S. enterica typhimurium WT", "growth AUC normalised to DMSO control": 1.01}
{"COMPOUND": "Cc1ncc(CO)c(CO)c1O [Pyridoxine hydrochloride]", "ASSAYED_TARGET": "S. enterica typhimurium WT", "growth AUC normalised to DMSO control": 1.01}
{"COMPOUND": "CCc1ccc(CCOc2ccc(CC3SC(=O)NC3=O)cc2)nc1 (stereo not drawn) [Pioglitazone]", "ASSAYED_TARGET": "S. enterica typhimurium WT", "growth AUC normalised to DMSO control": 0.996}
{"COMPOUND": "CO[C@@H]1[C@@H](O[C@@H]2O[C@H](C)[C@@H](O[C@H]3C[C@@](C)(O)[C@@H](O)[C@H](C)O3)[C@H](N(C)C)[C@H]2O)[C@@H](CC=O)C[C@@H](C)[C@@H](O[C@H]2CC[C@H](N(C)C)[C@@H](C)O2)/C=C/C=C/C[C@@H](C)OC(=O)C[C@H]1OC(C)=O [Acetyl spiramycin]", "ASSAYED_TARGET": "S. enterica typhimurium WT", "growth AUC normalised to DMSO control": 0.991}
{"COMPOUND": "Cc1ccccc1C(OCCN(C)C)c1ccccc1 (stereo not drawn) [Orphenadrine hydrochloride]", "ASSAYED_TARGET": "S. enterica typhimurium WT", "growth AUC normalised to DMSO control": 0.983}
{"COMPOUND": "CC[N+](C)(CC)CCC[n+]1c(-c2ccccc2)c2cc(N)ccc2c2ccc(N)cc21 [Propidium iodide]", "ASSAYED_TARGET": "S. enterica typhimurium WT", "growth AUC normalised to DMSO control": 1.01}
{"COMPOUND": "C[C@H](N[C@@H](CCc1ccccc1)C(=O)O)C(=O)N1CCC[C@H]1C(=O)O [Enalaprilat dihydrate]", "ASSAYED_TARGET": "S. enterica typhimurium WT", "growth AUC normalised to DMSO control": 0.992}
{"COMPOUND": "COc1ccc(CC2c3cc(OC)c(OC)cc3CC[N+]2(C)CCC(=O)OCCCCCOC(=O)CC[N+]2(C)CCc3cc(OC)c(OC)cc3C2Cc2ccc(OC)c(OC)c2)cc1OC (stereo not drawn) [Atracurium besylate]", "ASSAYED_TARGET": "S. enterica typhimurium WT", "growth AUC normalised to DMSO control": 0.983}
{"COMPOUND": "CN(C)CCCOc1nn(Cc2ccccc2)c2ccccc12 [Benzydamine hydrochloride]", "ASSAYED_TARGET": "S. enterica typhimurium WT", "growth AUC normalised to DMSO control": 0.988}
{"COMPOUND": "COc1cc(C(=O)OCCCN2CCCN(CCCOC(=O)c3cc(OC)c(OC)c(OC)c3)CC2)cc(OC)c1OC [Dilazep dihydrochloride]", "ASSAYED_TARGET": "S. enterica typhimurium WT", "growth AUC normalised to DMSO control": 1}
{"COMPOUND": "NC(=O)c1cc[n+](CC2=C(C(=O)[O-])N3C(=O)[C@@H](NC(=O)[C@@H](c4ccccc4)S(=O)(=O)O)[C@H]3SC2)cc1 [Cefsulodin sodium salt]", "ASSAYED_TARGET": "S. enterica typhimurium WT", "growth AUC normalised to DMSO control": 1}
{"COMPOUND": "C#C[C@]1(O)CC[C@H]2[C@@H]3[C@H](C)CC4=C(CCC(=O)C4)[C@H]3CC[C@@]21C [Tibolone]", "ASSAYED_TARGET": "S. enterica typhimurium WT", "growth AUC normalised to DMSO control": 1}
{"COMPOUND": "COc1cc(-c2ccc(=O)[nH]n2)ccc1OC(F)F [Zardaverine]", "ASSAYED_TARGET": "S. enterica typhimurium WT", "growth AUC normalised to DMSO control": 0.995}
{"COMPOUND": "NS(=O)(=O)c1cc2c(cc1Cl)N=C(CSCc1ccccc1)NS2(=O)=O [Benzthiazide]", "ASSAYED_TARGET": "S. enterica typhimurium WT", "growth AUC normalised to DMSO control": 1.01}
{"COMPOUND": "CC(C)c1nc(N(C)S(C)(=O)=O)nc(-c2ccc(F)cc2)c1/C=C/[C@@H](O)C[C@@H](O)CC(=O)O [Rosuvastatin]", "ASSAYED_TARGET": "S. enterica typhimurium WT", "growth AUC normalised to DMSO control": 1.01}
